- TEST TARGET: Protein kinase C zeta type (Homo sapiens) (UniProt Q05513)
- Sequence (Q05513 whole entry): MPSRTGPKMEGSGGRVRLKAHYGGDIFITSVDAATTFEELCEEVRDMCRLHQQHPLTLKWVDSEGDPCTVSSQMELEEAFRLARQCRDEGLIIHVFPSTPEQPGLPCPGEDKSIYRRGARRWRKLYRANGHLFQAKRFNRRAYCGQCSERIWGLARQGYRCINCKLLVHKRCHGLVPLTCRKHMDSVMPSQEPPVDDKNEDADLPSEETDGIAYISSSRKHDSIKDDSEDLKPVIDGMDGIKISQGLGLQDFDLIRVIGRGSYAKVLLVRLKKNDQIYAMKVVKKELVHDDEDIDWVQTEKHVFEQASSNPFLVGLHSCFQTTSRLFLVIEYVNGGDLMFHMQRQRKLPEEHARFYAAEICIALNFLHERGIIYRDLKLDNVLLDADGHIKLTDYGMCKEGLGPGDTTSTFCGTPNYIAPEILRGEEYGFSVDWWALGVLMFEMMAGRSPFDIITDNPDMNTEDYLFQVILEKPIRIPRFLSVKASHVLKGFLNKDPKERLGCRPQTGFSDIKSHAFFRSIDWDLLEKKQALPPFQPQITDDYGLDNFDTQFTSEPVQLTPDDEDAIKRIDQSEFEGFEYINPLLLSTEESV
- EXPERIMENTAL DETAILS: Inhibition of PKCzeta at 10 uM
REPORTED PROPERTY: inhibition (%)

Solved entries:
MOLECULE	SCALE UNIT	inhibition
Cc1cc(C2=N/C(=C\c3cccnc3)C(=O)O2)ccc1Br	%	5
Cc1cccc(C2=N/C(=C\c3cccnc3)C(=O)O2)c1	%	2
O=C1OC(c2ccccc2)=N/C1=C\c1cccnc1	%	3
O=C1OC(/C=C/c2ccccc2)=NC/1=C\c1cccnc1	%	3

a. O=C1OC(c2ccc(Cl)cc2)=N/C1=C\c1cccnc1
b. O=C1OC(c2ccc(F)c(F)c2)=N/C1=C\c1cccnc1
// query I would appreciate it if you could say which entry, a or b , has the lower inhibition value. Select an item and report its label.
// result a

The measurements presented in this section are drawn from ChEMBL document CHEMBL1156313.
